Test system: Calu-3
test summary: drug sensitivity score (DSS) for viability; higher = more toxic; extreme values may be limits of the assay
particulars: 72 h
observed property: drug sensitivity score

compound: CC(SC(=O)c1cccs1)C(=O)NCC(=O)O (configuration not stated) [stepronin]
drug sensitivity score: 0

Could you share what drug sensitivity score was measured for CC(=O)O/N=C1\C(=O)N(Cc2cc(Cl)ccc2Cl)c2ccc(Cl)cc21 , tested on Calu-3?
2.1

Calu-3 / drug sensitivity score / CC(=O)Oc1c(C)cc(OCC(O)CNC(C)C)c(C)c1C (configuration not stated) [metipranolol] : value?
0

Can you look up drug sensitivity score on Calu-3 for CC(C)(C)c1ccc(/C=C/C(=O)Nc2ccc3c(c2)OCCO3)cc1 [AMG-9810] ?
1.4

Please state recorded drug sensitivity score (tested on Calu-3) of CN[C@@H](C)CCC=C(C)C [isometheptene-mucate]
0

Look up drug sensitivity score with Calu-3 for this compound: C[C@H]1O[C@@H](O[C@H]2CC[C@@]3(C)[C@H](CC[C@@H]4[C@@H]3C[C@@H](O)[C@]3(C)[C@@H](C5=CC(=O)OC5)CC[C@]43O)C2)C[C@H](O)[C@@H]1O[C@H]1C[C@H](O)[C@H](O[C@H]2C[C@H](O)[C@H](O[C@@H]3O[C@H](CO)[C@@H](O)[C@H](O)[C@H]3O)[C@@H](C)O2)[C@@H](C)O1 [deslanoside]
14

Test system Calu-3; read-out drug sensitivity score; what value for CCOC(=O)[C@@H](C)Oc1ccc(Oc2nc3ccc(Cl)cc3o2)cc1 [fenoxaprop-p-ethyl] ?
0

----------
Tested on: U2OS
test summary: cell viability relative to DMSO; higher = less toxic
particulars: 72 h; 10000 nM
observed property: cell viability
Please provide the amount together with its unit, number first.

Sample records with cell viability:
molecule: O=C(O)c1cc(=O)c2c(OCC(O)COc3cccc4oc(C(=O)O)cc(=O)c34)cccc2o1 [cromoglicic-acid]
observed property: cell viability
val: 96.9%
--
molecule: FC(F)(F)c1cc(CO[C@H]2CCCN[C@H]2c2ccccc2)cc(C(F)(F)F)c1
observed property: cell viability
val: 92.1%

Query: cell viability; subject: Cc1ccnc(NC(=O)C(C)c2cccc(C(=O)c3ccccc3)c2)c1 (stereo not given) [piketoprofen]
95.3%

Quick one: cell viability of N#Cc1cnc2c(Cl)cc(NCc3cn(CCN4CCCCCC4)nn3)cc2c1Nc1ccc(F)c(Cl)c1 [cot-inhibitor-1] ?
77%

Can you share its cell viability? I mean this molecule: CCCCCCN(CCCCCC)C(=O)Cc1c(-c2ccc(F)cc2)[nH]c2ccccc12 [FGIN-1-27]
92.3%

----------
System: A549-ACE2
test summary: drug-induced phospholipidosis relative to tamoxifen; higher = more phospholipidosis
particulars: 6.66667 µM; 72 h
Listed molecules paired with reported drug-induced phospholipidosis
Use % as the unit, but write only the number.

Look over these answered cases.
molecule: O=C(CN1C2=NCCN2c2ccccc21)c1ccc(-c2ccccc2)cc1
drug-induced phospholipidosis (%): 36.6
--
molecule: OC(c1cc(C(F)(F)F)nc2c(C(F)(F)F)cccc12)C1CCCCN1 (stereo unspecified)
drug-induced phospholipidosis (%): 87.9
--
molecule: Cc1[nH]c2ccccc2c1CCNC(=O)c1cccs1
drug-induced phospholipidosis (%): 4.21
--
molecule: CCCC[C@@H](C=O)NC(=O)[C@H](CC(C)C)NC(=O)OCc1ccccc1
drug-induced phospholipidosis (%): 13.5
--
molecule: C[S+]([O-])CCCCN=C=S (stereo unspecified)
drug-induced phospholipidosis (%): -5.9

Query molecule follows.
Can you look up drug-induced phospholipidosis on A549-ACE2 for CCOC(=O)c1c(C)[nH]c2ccc3c(c12)CN1CCc2cc(OC)ccc2C1O3 (stereo unspecified) ?
8.63

Origin of measurements: the supplement of paper PMC13380429
